Tested on: Caenorhabditis elegans
Assay: C. elegans L1 nematicidal dose response, 5 day visual viability score (3-fold dilutions)
Assay type: in vivo
Set-up: key: Dead: only stiff L1s (no movement); Dead (L4): worms are dead, but at a later larval stage; majority of worms are L1 (based on size); majority of worms are L2 (based on size); majority of worms are L3 (based on size); majority of worms are L4 (based on size); AD: majority of worms are adult; #AD: 5 adult worms or less; B!: sterile (0-25 progeny); B: low broodsize (25-100 progeny); ˜B: moderate broodsize (100-250 progeny); <: reduced broodsize (250-500 progeny); OK: no effect (˜1000+ progeny)
Conditions: 23.3 μM, scored day 5

{"Compound": "CCC(=O)C(C)C(Nc1cc(Br)c(C)c(Br)c1)c1ccc(C)o1 (centres unmarked)", "5 Day Visual Score V2": "L1"}
{"Compound": "O=C(NCCc1ccccc1F)C1C(c2ccc(F)cc2)=NOC1c1ccc(-c2ccccc2)cc1 (centres unmarked)", "5 Day Visual Score V2": "L1"}
{"Compound": "Cc1ccc(C(CC(=O)c2ccccc2)Nc2ccc(I)cc2F)o1 (centres unmarked)", "5 Day Visual Score V2": "Dead"}
{"Compound": "O=C(NCCc1ccccc1F)C1C(c2ccccc2Cl)=NOC1c1ccc(-c2ccccc2)cc1 (centres unmarked)", "5 Day Visual Score V2": "L1"}
{"Compound": "COc1ccccc1-c1noc(C(C)CNC(=O)Nc2ccc(OC(F)(F)F)cc2)n1 (centres unmarked)", "5 Day Visual Score V2": "Dead"}
{"Compound": "COc1ccc(C2=NOC(c3ccc(-c4ccccc4)cc3)C2C(=O)NCCc2ccccc2F)cc1 (centres unmarked)", "5 Day Visual Score V2": "L1"}
{"Compound": "Fc1ccc(N2CCN(c3nc(NCc4ccc(C(F)(F)F)cc4)ns3)CC2)cc1", "5 Day Visual Score V2": "L1"}
{"Compound": "CCCCCCCCS(=O)(=O)N1CCN(C(=O)C=Cc2cccc(C(F)(F)F)c2)CC1C(=O)NCc1ccc(C(F)(F)F)cc1 (centres unmarked)", "5 Day Visual Score V2": "L2"}
{"Compound": "O=C(Nc1ccc(Br)cc1)N1CCC(c2nc(-c3ccccc3)no2)CC1", "5 Day Visual Score V2": "Dead"}
{"Compound": "CCOc1ccc(C2ON=C(c3ccc(F)cc3)C2C(=O)NCCc2ccc(F)cc2)cc1 (centres unmarked)", "5 Day Visual Score V2": "L1"}
{"Compound": "O=C(Nc1ccc(OC(F)(F)F)cc1)NC1CCC(c2nc(-c3ccccc3)no2)CC1 (centres unmarked)", "5 Day Visual Score V2": "Dead(L2/L3)"}
{"Compound": "CCCc1ccc(C(Nc2ccc(-c3ccccc3)cc2)C2CCCCC2=O)cc1 (centres unmarked)", "5 Day Visual Score V2": "Dead"}
{"Compound": "CCC1CCCCN1c1cc(Oc2ccc3oc4ccccc4c3c2)ncn1 (centres unmarked)", "5 Day Visual Score V2": "L1"}
{"Compound": "O=C(NCCCCCc1nc(-c2ccccc2)no1)Nc1ccc(OC(F)(F)F)cc1", "5 Day Visual Score V2": "Dead(L2/L3)"}
{"Compound": "Cc1ccc(C(CC(=O)c2ccccc2)Nc2ccc(I)cc2)o1 (centres unmarked)", "5 Day Visual Score V2": "Dead"}
{"Compound": "O=C(NCC1CCC(c2nc(-c3ccccc3)no2)CC1)Nc1ccc(OC(F)(F)F)cc1 (centres unmarked)", "5 Day Visual Score V2": "Dead"}

###

Test system: Caenorhabditis elegans
Assay: C. elegans L1 nematicidal dose response, 5 day visual viability score (3-fold dilutions)
Type: in vivo
Set-up: key: Dead: only stiff L1s (no movement); Dead (L4): worms are dead, but at a later larval stage; majority of worms are L1 (based on size); majority of worms are L2 (based on size); majority of worms are L3 (based on size); majority of worms are L4 (based on size); AD: majority of worms are adult; #AD: 5 adult worms or less; B!: sterile (0-25 progeny); B: low broodsize (25-100 progeny); ˜B: moderate broodsize (100-250 progeny); <: reduced broodsize (250-500 progeny); OK: no effect (˜1000+ progeny)
Conditions: 7.8 μM, scored day 5

{"Compound": "CCCc1ccc(C(Nc2ccc(-c3ccccc3)cc2)C2CCCCC2=O)cc1 (stereo not drawn)", "5 Day Visual Score V3": "Dead"}
{"Compound": "O=C(NCCc1ccccc1F)C1C(c2ccccc2Cl)=NOC1c1ccc(-c2ccccc2)cc1 (stereo not drawn)", "5 Day Visual Score V3": "L1"}
{"Compound": "CC(C)(C)C1=NOC(c2ccc(-c3ccccc3)cc2)C1C(=O)NCCc1ccccc1F (stereo not drawn)", "5 Day Visual Score V3": "L1"}
{"Compound": "O=C(Nc1ccc(Br)cc1)NC1CCC(c2nc(-c3ccccc3)no2)CC1 (stereo not drawn)", "5 Day Visual Score V3": "L3"}
{"Compound": "Cc1ccc(C(CC(=O)c2ccccc2)Nc2ccc(I)cc2)o1 (stereo not drawn)", "5 Day Visual Score V3": "Dead"}
{"Compound": "CCOc1cccc(C2ON=C(c3ccccc3OCC)C2C(=O)NCc2ccc(OC(F)(F)F)cc2)c1 (stereo not drawn)", "5 Day Visual Score V3": "L2"}
{"Compound": "O=C(NCC1CCC(c2nc(-c3ccccc3)no2)CC1)Nc1ccc(OC(F)(F)F)cc1 (stereo not drawn)", "5 Day Visual Score V3": "Dead"}
{"Compound": "COc1ccccc1-c1noc(C(C)CNC(=O)Nc2ccc(OC(F)(F)F)cc2)n1 (stereo not drawn)", "5 Day Visual Score V3": "L2"}

###

Tested on: Caenorhabditis elegans
Assay: C. elegans L1 nematicidal dose response, 5 day visual viability score (3-fold dilutions)
Format: in vivo
Design: key: Dead: only stiff L1s (no movement); Dead (L4): worms are dead, but at a later larval stage; majority of worms are L1 (based on size); majority of worms are L2 (based on size); majority of worms are L3 (based on size); majority of worms are L4 (based on size); AD: majority of worms are adult; #AD: 5 adult worms or less; B!: sterile (0-25 progeny); B: low broodsize (25-100 progeny); ˜B: moderate broodsize (100-250 progeny); <: reduced broodsize (250-500 progeny); OK: no effect (˜1000+ progeny)
Details: 2.6 μM, scored day 5
Reported Endpoint: 5 Day Visual Score V4

{"Compound": "O=C(NCCc1ccccc1F)C1C(c2ccccc2Cl)=NOC1c1ccc(-c2ccccc2)cc1 (stereo not drawn)", "Observed Result": "L1"}
{"Compound": "COc1ccc(C2=NOC(c3ccc(-c4ccccc4)cc3)C2C(=O)NCCc2ccccc2F)cc1 (stereo not drawn)", "Observed Result": "#AD/˜B"}
{"Compound": "CCCCOc1ccc(C(=O)N2CC(OCCCc3ccccc3)CC2C(=O)NCc2ccccc2OC)cc1 (stereo not drawn)", "Observed Result": "#AD/˜B"}
{"Compound": "CCOc1cccc(C2ON=C(c3ccccc3OCC)C2C(=O)NCc2ccc(OC(F)(F)F)cc2)c1 (stereo not drawn)", "Observed Result": "L2"}
{"Compound": "CCCCOc1ccc(C(=O)N2CC(OCCCc3ccccc3)CC2C(=O)NCc2ccccc2Br)cc1 (stereo not drawn)", "Observed Result": "L3"}
{"Compound": "O=C(Nc1ccc(Br)cc1)N1CCC(c2nc(-c3ccccc3)no2)CC1", "Observed Result": "L1"}
{"Compound": "CCC(=O)C(C)C(Nc1cc(Br)c(C)c(Br)c1)c1ccc(C)o1 (stereo not drawn)", "Observed Result": "#AD/˜B"}
{"Compound": "Cc1ccc(C(CC(=O)c2ccccc2)Nc2ccc(I)cc2)o1 (stereo not drawn)", "Observed Result": "L1"}

###

Reported values of Follow-up HTS Run % Run for individual entries
Test system: Caenorhabditis elegans
Test: Follow-up HTS Run (mOD, % Run, visual score)
Conditions: in vivo
Reported Endpoint: Follow-up HTS Run % Run (%)

{"Compound": "CC(C)(C)c1csc(NC(=O)CC2CCCc3ccccc32)n1 (stereo not drawn) [AKC 175]", "Target": "Caenorhabditis elegans", "Reported Endpoint": "Follow-up HTS Run % Run", "Observed Result": 99}
{"Compound": "CCCCCCCCS(=O)(=O)N1CCN(C(=O)c2cc(C(F)(F)F)cc(C(F)(F)F)c2)CC1C(=O)NCc1ccccc1 (stereo not drawn) [AKC 165]", "Target": "Caenorhabditis elegans", "Reported Endpoint": "Follow-up HTS Run % Run", "Observed Result": 126}
{"Compound": "CCCCCCCCS(=O)(=O)N1CCN(C(=O)C=Cc2cccc(C(F)(F)F)c2)CC1C(=O)NCc1ccccc1C(F)(F)F (stereo not drawn) [AKC 173]", "Target": "Caenorhabditis elegans", "Reported Endpoint": "Follow-up HTS Run % Run", "Observed Result": 107}
{"Compound": "COc1ccc(CC(=O)N2CCN(S(=O)(=O)c3ccc(OC)c(OC)c3)C(C(=O)NCc3cc(C(F)(F)F)cc(C(F)(F)F)c3)C2)cc1OC (stereo not drawn) [AKC 168]", "Target": "Caenorhabditis elegans", "Reported Endpoint": "Follow-up HTS Run % Run", "Observed Result": 135}
{"Compound": "CC(=O)Nc1ccc(S(=O)(=O)N2CCN(C(=O)c3cc(C(F)(F)F)cc(C(F)(F)F)c3)CC2C(=O)NCc2ccccc2)cc1 (stereo not drawn) [AKC 163]", "Target": "Caenorhabditis elegans", "Reported Endpoint": "Follow-up HTS Run % Run", "Observed Result": 136}
{"Compound": "Cc1cccc2scc(CC(=O)Nc3nc(C(C)(C)C)cs3)c12 [AKC 170]", "Target": "Caenorhabditis elegans", "Reported Endpoint": "Follow-up HTS Run % Run", "Observed Result": 139}
{"Compound": "CC(C)(C)c1csc(NC(=O)Cc2cn(Cc3cccnc3)c3ccc(Cl)cc23)n1 [AKC 162]", "Target": "Caenorhabditis elegans", "Reported Endpoint": "Follow-up HTS Run % Run", "Observed Result": 111}
{"Compound": "CCCCCCCCS(=O)(=O)N1CCN(C(=O)C=Cc2cccc(C(F)(F)F)c2)CC1C(=O)NCc1ccc(C(F)(F)F)cc1 (stereo not drawn) [AKC 171]", "Target": "Caenorhabditis elegans", "Reported Endpoint": "Follow-up HTS Run % Run", "Observed Result": 111}
{"Compound": "CC(C)(C)c1csc(NC(=O)Cc2cn(Cc3ccccc3Cl)c3ccc(Cl)cc23)n1 [AKC 157]", "Target": "Caenorhabditis elegans", "Reported Endpoint": "Follow-up HTS Run % Run", "Observed Result": 108}
